- target_under_test: FAP-expressing human WI-38 fibroblasts (Homo sapiens, UniProt Q12884)
- Sequence (Q12884 whole entry): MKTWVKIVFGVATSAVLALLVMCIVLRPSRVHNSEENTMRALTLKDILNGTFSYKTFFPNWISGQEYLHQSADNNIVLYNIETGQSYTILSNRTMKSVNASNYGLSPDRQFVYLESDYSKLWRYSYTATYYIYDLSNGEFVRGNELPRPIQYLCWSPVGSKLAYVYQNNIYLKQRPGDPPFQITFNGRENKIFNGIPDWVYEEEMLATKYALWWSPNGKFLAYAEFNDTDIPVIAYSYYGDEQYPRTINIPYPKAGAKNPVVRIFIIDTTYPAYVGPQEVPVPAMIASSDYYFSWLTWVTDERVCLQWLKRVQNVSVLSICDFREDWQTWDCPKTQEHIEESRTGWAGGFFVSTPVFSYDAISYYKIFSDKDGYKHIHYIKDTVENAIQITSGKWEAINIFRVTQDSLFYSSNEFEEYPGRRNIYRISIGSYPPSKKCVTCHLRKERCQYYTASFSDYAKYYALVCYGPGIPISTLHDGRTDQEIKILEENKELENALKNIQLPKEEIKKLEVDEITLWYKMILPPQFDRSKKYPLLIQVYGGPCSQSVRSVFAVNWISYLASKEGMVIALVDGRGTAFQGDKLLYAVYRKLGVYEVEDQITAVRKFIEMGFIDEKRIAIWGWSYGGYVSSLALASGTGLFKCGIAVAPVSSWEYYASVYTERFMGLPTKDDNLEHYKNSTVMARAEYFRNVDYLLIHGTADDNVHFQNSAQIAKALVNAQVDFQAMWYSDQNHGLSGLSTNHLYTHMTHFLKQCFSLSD
pIC50: −log10 of the molar value. Numbered stars: 1 amine (or outer) side, 2 acyl side, 3 side chain; on linkers, the order of the positions; unused ones are H or OH. Bridge positions count the residues as written; N and C are the ends. Square brackets hold non-standard residues; d marks the D form. Peptide text beside a SMILES is read from it. * marks the point of attachment. ξ: configuration not given here. X7 = O=C(CCP(=O)(O)CN1CCN(CP(=O)(O)CO)CCN(CP(=O)(O)CO)CC1)NCCSCc1cc(C[*:1])cc(C[*:2])c1; Hexanoyl = CCCCCC(=O)*; ξC = NC(CS)C(=O)O
parameter: pIC50

// known answers, use as guide
CC(=O)N[C@@H](CCCC(=O)O)C(=O)N[C@H]1CSCc2cccc(c2)CSC[C@@H](C(N)=O)NC(=O)[C@H](Cc2ccccc2)NC(=O)[C@H](CCC(N)=O)NC(=O)[C@H]([C@@H](C)O)NC(=O)[C@@H]2CCCN2C(=O)[C@@H]2CCCN2C1=O [3BP-3764] :: < 6.00
CCCCCC(=O)N[C@H]1CSCc2cc(CSCCNC(=O)CCP(=O)(O)CN3CCN(CP(=O)(O)CO)CCN(CP(=O)(O)CO)CC3)cc(c2)CSCC(C(=O)O)NC(=O)[C@H](Cc2ccccc2)NC(=O)[C@H](CCC(=O)O)NC(=O)[C@H]([C@@H](C)O)NC(=O)[C@@H]2CCCN2C(=O)[C@@H]2CCCN2C1=O (stereo partly drawn) [3BP-4818] (Hexanoyl-CPPTEF[ξC]-OH; linker 1-7 via X7) :: 7.10 to 8.00

Please look at the following compound next.
Fill in the blank: the reported pIC50 of CCCC[C@H](NC(=O)CCC(=O)NCCCOCCOCCOCCCNC(=O)CC[C@H](NC(=O)C(CNCCN)CNCCN)C(=O)O)C(=O)N[C@H]1CSCc2cccc(c2)CSC[C@@H](C(=O)O)NC(=O)[C@H](Cc2ccccc2)NC(=O)[C@H](CCC(N)=O)NC(=O)[C@H]([C@@H](C)O)NC(=O)[C@@H]2CCCN2C(=O)[C@@H]2CCCN2C1=O [3BP-4245] is ____.
7.10 to 8.00

---

- experimental_details: Pharmacokinetic study in rats (plasma, NCA)
- reported_conditions: rat, intravenous, 40 nmol/kg
parameter: C0 (nM)
One number for each entry, in nM.

Reported C0, molecule CCCCCC(=O)N[C@H]1CSCc2cc(CSCCNC(=O)CN3CCN(CC(=O)O)CCN(CC(=O)O)CCN(CC(=O)O)CC3)cc(c2)CSC[C@@H](C(=O)O)NC(=O)[C@H](Cc2ccccc2)NC(=O)[C@H](CCC(N)=O)NC(=O)[C@H]([C@@H](C)O)NC(=O)[C@@H]2CCCN2C(=O)[C@@H]2CCCN2C1=O : ____
127

---

- experimental_details: Pharmacokinetic study in rats (plasma, NCA)
- reported_conditions: rat, intravenous, 40 nmol/kg, Vz, rat plasma
parameter: Vd (L/kg)
One number for each entry, in L/kg.

Which Vd is listed for CCCCCC(=O)N[C@H]1CSCc2cc(CSCCNC(=O)CN3CCN(CC(=O)O)CCN(CC(=O)O)CCN(CC(=O)O)CC3)cc(c2)CSC[C@@H](C(=O)O)NC(=O)[C@H](Cc2ccccc2)NC(=O)[C@H](CCC(N)=O)NC(=O)[C@H]([C@@H](C)O)NC(=O)[C@@H]2CCCN2C(=O)[C@@H]2CCCN2C1=O ?
0.58

---

- target_under_test: Human recombinant FAP (Homo sapiens, UniProt Q12884)
- experimental_details: FRET-based FAP protease activity assay
- Format: biochemical
- Design: purchased R&D systems 3715-SE
- reported_conditions: pIC50 Category (Activity), FRET-peptide substrate, 37° C.
parameter: IC50

C=CCCOC(=O)N[C@H]1CSCc2cc(CSCCNC(=O)CN3CCN(CC(=O)O)CCN(CC(=O)O)CCN(CC(=O)O)CC3)cc(c2)CSC[C@@H](C(=O)O)NC(=O)[C@H](Cc2ccccc2)NC(=O)[C@H](CCC(N)=O)NC(=O)[C@H]([C@@H](C)O)NC(=O)[C@@H]2CCCN2C(=O)[C@@H]2CCCN2C1=O [3BP-3916] :: 10 to 79.4 nM
CCCCNC(=O)N[C@H]1CSCc2cc(cc(CN3CCN(C(=O)CN4CCN(CC(=O)O)CCN(CC(=O)O)CCN(CC(=O)O)CC4)CC3)c2)CSC[C@@H](C(N)=O)NC(=O)[C@H](Cc2ccccc2)NC(=O)[C@H](CCC(N)=O)NC(=O)[C@H]([C@@H](C)O)NC(=O)[C@@H]2CCCN2C(=O)[C@@H]2CCCN2C1=O [3BP-4565] :: < 10 nM
CCCCNC(=O)N[C@H]1CSCc2cc(cc(CN3CCN(C(=O)C(CNCCN)CNCCN)CC3)c2)CSC[C@@H](C(=O)O)NC(=O)[C@H](Cc2ccccc2)NC(=O)[C@H](CCC(N)=O)NC(=O)[C@H]([C@@H](C)O)NC(=O)[C@@H]2CCCN2C(=O)[C@@H]2CCCN2C1=O [3BP-4533] :: < 10 nM

// IC50 lookup, key: CCCCCC(=O)N[C@H]1CSCc2cc(CSCCNC(=O)COCCOCCNC(=O)CCC(C(=O)O)N3CCN(CC(=O)O)CCN(CC(=O)O)CC3)cc(c2)CSC[C@@H](C(=O)O)NC(=O)[C@H](Cc2ccccc2)NC(=O)[C@H](CCC(N)=O)NC(=O)[C@H]([C@@H](C)O)NC(=O)[C@@H]2CCCN2C(=O)[C@@H]2CCCN2C1=O (stereo partly shown) [3BP-4251]
< 10 nM

---

Kindly supply the reported HPLC Area % appr. 4 h post end of synthesis values for the records listed here.
- experimental_details: Radiochemical purity by HPLC of ^99mTc-labeled compounds
- Assay type: physicochemical
- reported_conditions: 99Tc-labeled compounds
Numbered stars: 1 amine (or outer) side, 2 acyl side, 3 side chain; on linkers, the order of the positions; unused ones are H or OH. Bridge positions count the residues as written; N and C are the ends. Square brackets hold non-standard residues; d marks the D form. Peptide text beside a SMILES is read from it. * marks the point of attachment. X6 = NCCNCC(CNCCN)C(=O)NCCOCCOCCOCCOCCOCCOCCC(=O)NCCCOCCOCCOCCCN*; X1 = NCCNCC(CNCCN)C(=O)N1CCN(CC(=O)NCCCOCCOCCOCCCN*)CC1; mXylylene = c1cc(C[*:1])cc(C[*:2])c1; Suc = O=C(CCC(=O)[*:2])[*:1]; Nle = CCCC[C@H](N)C(=O)O
Just so you know, I need the unit written after the number.

Illustrative cases are given below, each with its answer.
CCCC[C@H](NC(=O)CCC(=O)NCCCOCCOCCOCCCNC(=O)CCOCCOCCOCCOCCOCCOCCNC(=O)C(CNCCN)CNCCN)C(=O)N[C@H]1CSCc2cccc(c2)CSC[C@@H](C(=O)O)NC(=O)[C@H](Cc2ccccc2)NC(=O)[C@H](CCC(=O)O)NC(=O)[C@H]([C@@H](C)O)NC(=O)[C@@H]2CCCN2C(=O)[C@@H]2CCCN2C1=O [3BP-4780] ({X6-Suc}-[Nle]CPPTEFC-OH; linker 2-8 via mXylylene) :: 92.3%
CCCC[C@H](NC(=O)CCC(=O)NCCCOCCOCCOCCCNC(=O)CN1CCN(C(=O)C(CNCCN)CNCCN)CC1)C(=O)N[C@H]1CSCc2cccc(c2)CSCC(C(=O)O)NC(=O)[C@H](Cc2ccccc2)NC(=O)[C@H](CCC(N)=O)NC(=O)[C@H]([C@@H](C)O)NC(=O)[C@@H]2CCCN2C(=O)[C@@H]2CCCN2C1=O (stereo partly shown) :: 89.7%
CCCC[C@H](NC(=O)CCC(=O)NCCCOCCOCCOCCCNC(=O)CN1CCN(C(=O)C(CNCCN)CNCCN)CC1)C(=O)N[C@H]1CSCc2cncc(c2)CSCC(C(=O)O)NC(=O)[C@H](Cc2ccccc2)NC(=O)[C@H](CCC(N)=O)NC(=O)[C@H]([C@@H](C)O)NC(=O)[C@@H]2CCCN2C(=O)[C@@H]2CCCN2C1=O (stereo partly shown) :: 86.1%

Bench note: what HPLC Area % appr. 4 h post end of synthesis did CCCC[C@H](NC(=O)CCC(=O)NCCCOCCOCCOCCCNC(=O)CN1CCN(C(=O)C(CNCCN)CNCCN)CC1)C(=O)N[C@H]1CSCc2cccc(c2)CSC[C@@H](C(=O)O)NC(=O)[C@H](Cc2ccccc2)NC(=O)[C@H](CCC(=O)O)NC(=O)[C@H]([C@@H](C)O)NC(=O)[C@@H]2CCCN2C(=O)[C@@H]2CCCN2C1=O [3BP-4782] ({X1-Suc}-[Nle]CPPTEFC-OH; linker 2-8 via mXylylene) show?
95.8%

---

- experimental_details: in vivo
- reported_conditions: swiss nude, mouse, tumor, iv
Numbered stars: 1 amine (or outer) side, 2 acyl side, 3 side chain; on linkers, the order of the positions; unused ones are H or OH. Bridge positions count the residues as written; N and C are the ends. Square brackets hold non-standard residues; d marks the D form. Peptide text beside a SMILES is read from it. * marks the point of attachment. X6 = NCCNCC(CNCCN)C(=O)NCCOCCOCCOCCOCCOCCOCCC(=O)NCCCOCCOCCOCCCN*; X1 = NCCNCC(CNCCN)C(=O)N1CCN(CC(=O)NCCCOCCOCCOCCCN*)CC1; mXylylene = c1cc(C[*:1])cc(C[*:2])c1; Suc = O=C(CCC(=O)[*:2])[*:1]; Nle = CCCC[C@H](N)C(=O)O; βAla = NCCC(=O)O
For each record, write down the corresponding tissue uptake at 3 h.

Here are 4 compounds together with their reported answers.
CCCCNC(=O)N[C@H]1CSCc2cc(cc(CN3CCN(C(=O)C(CNCCN)CNCCN)CC3)c2)CSC[C@@H](C(=O)O)NC(=O)[C@H](Cc2ccccc2)NC(=O)[C@H](CCC(N)=O)NC(=O)[C@H]([C@@H](C)O)NC(=O)[C@@H]2CCCN2C(=O)[C@@H]2CCCN2C1=O :: 6.27 %ID/g
CCCC[C@H](NC(=O)CCC(=O)NCCCOCCOCCOCCCNC(=O)CN1CCN(C(=O)C(CNCCN)CNCCN)CC1)C(=O)N[C@H]1CSCc2cccc(c2)CSCC(C(=O)O)NC(=O)[C@H](Cc2ccccc2)NC(=O)[C@H](CCC(N)=O)NC(=O)[C@H]([C@@H](C)O)NC(=O)[C@@H]2CCCN2C(=O)[C@@H]2CCCN2C1=O (some centres unmarked) :: 9.76 %ID/g
CCCC[C@H](NC(=O)CCC(=O)NCCCOCCOCCOCCCNC(=O)CCOCCOCCOCCOCCOCCOCCNC(=O)C(CNCCN)CNCCN)C(=O)N[C@H]1CSCc2cccc(c2)CSCC(C(=O)O)NC(=O)[C@H](Cc2ccccc2)NC(=O)[C@H](CCC(N)=O)NC(=O)[C@H]([C@@H](C)O)NC(=O)[C@@H]2CCCN2C(=O)[C@@H]2CCCN2C1=O (some centres unmarked) :: 6.86 %ID/g
CCCC[C@H](NC(=O)CCC(=O)NCCCOCCOCCOCCCNC(=O)CN1CCN(C(=O)C(CNCCN)CNCCN)CC1)C(=O)N[C@H]1CSCc2cncc(c2)CSCC(C(=O)O)NC(=O)[C@H](Cc2ccccc2)NC(=O)[C@H](CCC(N)=O)NC(=O)[C@H]([C@@H](C)O)NC(=O)[C@@H]2CCCN2C(=O)[C@@H]2CCCN2C1=O (some centres unmarked) :: 3.7 %ID/g

// input: 4 compounds below; output: tissue uptake at 3 h for each
1. CCCC[C@H](NC(=O)CCC(=O)NCCCOCCOCCOCCCNC(=O)CN1CCN(C(=O)C(CNCCN)CNCCN)CC1)C(=O)N[C@H]1CSCc2cccc(c2)CSC[C@@H](C(=O)NCCC(=O)O)NC(=O)[C@H](Cc2ccccc2)NC(=O)[C@H](CCC(N)=O)NC(=O)[C@H]([C@@H](C)O)NC(=O)[C@@H]2CCCN2C(=O)[C@@H]2CCCN2C1=O
2. CCCC[C@H](NC(=O)CCOCCOCCOCCOCCOCCOCCNC(=O)C(CNCCN)CNCCN)C(=O)N[C@H]1CSCc2cncc(c2)CSCC(C(=O)O)NC(=O)[C@H](Cc2ccccc2)NC(=O)[C@H](CCC(N)=O)NC(=O)[C@H]([C@@H](C)O)NC(=O)[C@@H]2CCCN2C(=O)[C@@H]2CCCN2C1=O (some centres unmarked)
3. CCCC[C@H](NC(=O)CCC(=O)NCCCOCCOCCOCCCNC(=O)CCOCCOCCOCCOCCOCCOCCNC(=O)C(CNCCN)CNCCN)C(=O)N[C@H]1CSCc2cccc(c2)CSC[C@@H](C(=O)O)NC(=O)[C@H](Cc2ccccc2)NC(=O)[C@H](CCC(=O)O)NC(=O)[C@H]([C@@H](C)O)NC(=O)[C@@H]2CCCN2C(=O)[C@@H]2CCCN2C1=O [3BP-4780] ({X6-Suc}-[Nle]CPPTEFC-OH; linker 2-8 via mXylylene)
4. CCCC[C@H](NC(=O)CCC(=O)NCCCOCCOCCOCCCNC(=O)CN1CCN(C(=O)C(CNCCN)CNCCN)CC1)C(=O)N[C@H]1CSCc2cccc(c2)CSC[C@@H](C(=O)NCCC(=O)O)NC(=O)[C@H](Cc2ccccc2)NC(=O)[C@H](CCC(=O)O)NC(=O)[C@H]([C@@H](C)O)NC(=O)[C@@H]2CCCN2C(=O)[C@@H]2CCCN2C1=O [3BP-4784] ({X1-Suc}-[Nle]CPPTEFC[βAla]-OH; linker 2-8 via mXylylene)

1: 12.8 %ID/g; 2: 4.91 %ID/g; 3: 7.01 %ID/g; 4: 7.43 %ID/g
